# assay_system: Fibroblast growth factor 2 (Homo sapiens)
# measurement_description: FGF2 binders on small-molecule microarrays, primary screen, biochemical, small-molecule microarray, 635/667 nm fluorescence (AID 1133)
# settings: small-molecule microarray binding, FGF2, fluorescence 635/667; higher = more signal
For each entry below, report its composite z-score value.

Any idea what composite z-score was measured for CC1CC/C=C\[C@H]2OC34C=CCN(Cc5ccccc5)C(=O)[C@H]3N(CCCO)C(=O)[C@@H]4C2C(=O)O1 (stereo partly specified) ?
-0.536

Any idea what composite z-score was measured for C=CCNC(=O)[C@@H]1[C@H]2C(=O)O[C@H](c3ccccc3)[C@H](c3ccccc3)N2[C@H](c2ccc(O)cc2)[C@@]12C(=O)N(C(=O)OCCOC)c1ccc(C#CCNC(N)=O)cc12 ?
1.45

Any idea what composite z-score was measured for CCN(CC)c1ccc(N2CC=CC34O[C@@H]5C=CCCOC(=O)C5[C@H]3C(=O)N(CCCCCCO)[C@@H]4C2=O)cc1 (stereo partly specified) ?
-0.551

Any idea what composite z-score was measured for COCCOC(=O)N1C(=O)[C@@]2(c3cc(C#CCC(C(=O)OC)C(=O)OC)ccc31)[C@H](c1ccccc1OCCO)N1[C@H](c3ccccc3)[C@H](c3ccccc3)OC(=O)[C@H]1[C@@H]2C(=O)NC[C@H](O)c1ccccc1 ?
1.83

Any idea what composite z-score was measured for C=C[C@H](C)[C@@H](OC(=O)Nc1ccc(OC)cc1)c1ccc(O)c2ccccc12 ?
0.0495

Any idea what composite z-score was measured for O=C1NC(=O)C2C1C=CC(C(O)c1cccs1)N2Nc1ccc(Cl)cc1Cl (stereo unspecified) ?
-0.534

Any idea what composite z-score was measured for COc1cc2c(cc1OC)CN(C(=O)[C@H]1[C@@H]3C(=O)O[C@@H](c4ccccc4)[C@@H](c4ccccc4)N3[C@@H](c3ccc(O)cc3)[C@]13C(=O)Nc1ccccc13)CC2 ?
0.39

Any idea what composite z-score was measured for COc1ccccc1CN1C(=O)c2ccccc2[C@@H](C(=O)NC2CC2)[C@@H]1c1ccc(CO)cc1 ?
1.66

Any idea what composite z-score was measured for O=C1NC(=O)C2C1C=CC(C(O)c1cc(C(F)(F)F)cc(C(F)(F)F)c1)N2Nc1ccccn1 (stereo unspecified) ?
0.047

Any idea what composite z-score was measured for C=C(C(=O)CC[C@@H](OC(=O)c1cccnc1)c1ccccc1OCCO)C(C)C ?
0.647

Any idea what composite z-score was measured for CC(=O)n1cc(C(O)C2C=CC3C(=O)N(c4ccccc4)C(=O)C3N2Nc2ccc([N+](=O)[O-])cc2)c2ccccc21 (stereo unspecified) ?
-0.105

Any idea what composite z-score was measured for C=CCNC(=O)[C@@H]1[C@H]2C(=O)O[C@H](c3ccccc3)[C@H](c3ccccc3)N2[C@H](c2ccc(O)cc2)[C@@]12C(=O)Nc1ccc(C#CCNC(N)=O)cc12 ?
-0.598

Any idea what composite z-score was measured for CC(C)N1C(=O)c2ccccc2[C@](C)(C(=O)NCCN2CCOCC2)[C@@H]1c1ccc(CO)cc1 ?
-0.574

Any idea what composite z-score was measured for COC(=O)[C@@]1(Cc2ccc(OC)cc2)[C@@H]2C(=CC(=O)[C@H]2CC(=O)C(=O)N2CCCC2)CN1C(=O)c1ccccc1 ?
-0.322

Any idea what composite z-score was measured for CC(C)[Si](C#Cc1ccc(Oc2ccccc2)cc1)(O[Si](C#Cc1ccc(Oc2ccccc2)cc1)(C(C)C)C(C)C)C(C)C ?
0.925

Any idea what composite z-score was measured for CCCCCCc1nc(-c2ccc(OC)nc2)cc2c1[Si](C(C)C)(C(C)C)O[C@H]2c1ccccc1 ?
0.896

Any idea what composite z-score was measured for CCCC[C@@H]1C[C@H]1[C@@H](NC(=O)c1ccco1)c1ccc(-c2ccccc2)cc1 ?
-0.199

Any idea what composite z-score was measured for COc1ccc(C#Cc2ccc3c(c2)[C@]2(C(=O)N3)[C@H](C(=O)Nc3nc4ccccc4s3)[C@H]3C(=O)O[C@H](c4ccccc4)[C@H](c4ccccc4)N3[C@@H]2c2ccc(O)cc2)cc1 ?
0.882

Any idea what composite z-score was measured for CN(C)C(=O)[C@@]1(CCS(=O)(=O)c2ccccc2)COC(c2ccc(OCCCO)cc2)=N1 ?
-0.0861

Any idea what composite z-score was measured for C=CCC(OC(C)=O)[C@@H]1[C@@H](N(Cc2ccc(-c3ccccc3)cc2)C(=O)Cc2ccc(OC)cc2)c2cc(OCCCO)ccc2N1C(=O)Cc1ccc2ccccc2c1 (stereo partly specified) ?
-0.197

Any idea what composite z-score was measured for [N-]=[N+]=Nc1ccccc1[C@H]1OC(c2ccc(OCCCO)cc2)=N[C@@]1(CCS(=O)(=O)c1ccccc1)C(N)=O ?
0.0263

Any idea what composite z-score was measured for C=CCN1C(=O)[C@]2(O[C@H](CCn3cc([C@H](O)c4ccccc4)nn3)[C@@H]([Si](C)(C)c3ccc(OC)cc3)[C@@H]2C)c2cc(N3CCC3=O)ccc21 ?
0.792

Any idea what composite z-score was measured for C=C[C@H](CO)NS(=O)(=O)c1ccc(Br)cc1 ?
0.464

Any idea what composite z-score was measured for O=C(c1ccccc1)N1C(=O)[C@@]2(Cc3ccccc31)N=C(c1ccc(OCCCO)cc1)O[C@H]2c1ccccc1 ?
1.45

Any idea what composite z-score was measured for CO[C@H]1O[C@H](CO)[C@@H](OC(=O)Nc2ccc(C(F)(F)F)cc2)[C@H](OC(=O)Nc2ccc3c(c2)OCO3)[C@@H]1OC(=O)Nc1ccc2c(c1)OCO2 ?
0.397

Any idea what composite z-score was measured for C=C(CCCC)/C(=C/C[C@@H](OC(=O)c1ccncc1)c1ccc(OCCO)cc1)c1cc(C(=O)OC)ccc1OC ?
0.0097
